- Tested on: SR leukemia
- assay-procedure: NCI-60 one-dose screen, 48 h
- test-context: 10 µM unless noted
Compounds without any hit were thinned out: in the full panel of roughly 83,000, 20% have a hit. The source made the active and inactive calls. Rule for the calls: active = growth percent below 10; inactive = the rest.
Hello, when you answer, please use one of the following outcomes: active, inactive

Would you please look over these solved cases?
Lookup: Hi, do you know how COC(CC(F)F)c1cn(S(=O)(=O)c2ccc(C)cc2)c2ccccc12 (stereo unspecified) came out in this test?
Found: inactive

Lookup: Hi, do you know how N#Cc1c(-c2ccc(Cl)cc2)nc(NN2C(=O)c3ccccc3C2=O)nc1N1CCOCC1 came out in this test?
Found: inactive

Lookup: Hi, do you know how O=S(=O)(Nc1cc(Cl)ccc1Cl)c1ccc(-c2cnc(C3CC3)o2)cc1 came out in this test?
Found: inactive

Lookup: Hi, do you know how Cc1ccc2c(Cn3cc(CSc4nc5ccccc5o4)nn3)cc(=O)oc2c1 came out in this test?
Found: inactive

Lookup: Hi, do you know how C=CCn1c(C)nc2ccc(Nc3nc(Nc4ccc5nc(C)n(CC=C)c5c4)c4ccccc4n3)cc21 came out in this test?
Found: active

Lookup: Hi, do you know how O=C1C(Cl)=C(Nc2ccc(S(=O)(=O)N3CCOCC3)cc2)C(=O)c2ccccc21 came out in this test?
Found: active

Lookup: Hi, do you know how Cc1cc(N2CCN(CC(=O)Nc3ccc4c(ccn4C)c3)CC2)nc(N2CCCCCC2)n1 came out in this test?
Found: inactive

Lookup: Hi, do you know how COc1cc(OCc2cccc(Br)c2C)cc(OC)c1C=O came out in this test?
Found: inactive

Lookup: Hi, do you know how O=S(=O)(Nc1ccc(Cl)c(C(F)(F)F)c1)c1ccc(-c2cnc(C3CC3)o2)cc1 came out in this test?
Found: active

Lookup: Hi, do you know how c1csc(-c2ccc(CNc3c4ccccc4nc4ccccc34)cc2)c1 came out in this test?
Found: active

More entries:
Lookup: Hi, do you know how Nc1nc2ccccc2c2c1S(=O)(=O)c1ccc(Cl)cc1C2=O came out in this test?
Found: active

Lookup: Hi, do you know how COc1ccc(C(C)=O)cc1S(=O)(=O)Nc1c(N)nc(SC)[nH]c1=O came out in this test?
Found: inactive

Lookup: Hi, do you know how O=C1C(=O)N(Cc2ccc(-c3ccccc3)cc2)c2ccc(OC(F)(F)F)cc21 came out in this test?
Found: active

Lookup: Hi, do you know how Cc1ccc(NC(=O)Cn2cc(CN3CCN(c4ccnc5cc(Cl)ccc45)CC3)nn2)cc1 came out in this test?
Found: inactive

Lookup: Hi, do you know how COc1cc(-c2cncn2-c2ccc(-c3nc4ccc(F)cc4s3)cc2)ccc1F came out in this test?
Found: inactive

Lookup: Hi, do you know how COc1cc2c(c(OC)c1OC)CCC(c1cccc(C(=O)Nc3cccc(Cl)c3)c1)O2 (stereo unspecified) came out in this test?
Found: inactive

Lookup: Hi, do you know how CC1CCN(CCOc2ccc(CNc3ccc4nc(CCC5CCCCC5)[nH]c4c3)cc2)CC1 came out in this test?
Found: inactive

Lookup: Hi, do you know how Cn1cc(-c2csc(-c3c[nH]c4ccc(Br)cc34)n2)c2ccnc(Cl)c21 came out in this test?
Found: inactive

Lookup: Hi, do you know how Cn1c(I)c(C#CCO[Si](C)(C)C(C)(C)C)c(=O)[nH]c1=O came out in this test?
Found: active

Lookup: Hi, do you know how Cc1cc(C(=O)O)c(C)n1-c1cccc(C(=O)O)c1 came out in this test?
Found: inactive

Lookup: Hi, do you know how O=C(CN1C(=O)NC2NC(=O)NC21)N/N=C/c1ccccc1[N+](=O)[O-] (stereo unspecified) came out in this test?
Found: inactive

###

- System: NCI/ADR-RES ovarian
- assay-procedure: NCI-60 one-dose screen, 48 h
- test-context: 10 µM unless noted
Compounds without any hit were thinned out: in the full panel of roughly 83,000, 20% have a hit. Calls of active or inactive are those of the source. Rule for the calls: active = growth percent below 10; inactive = the rest.
Hello, when you answer, please use one of the following outcomes: true (1) (active), false (0) (inactive)

Would you please look over these solved cases?
Lookup: Hi, do you know how O=C(Nc1nc2cc(C(=O)N3CCN(C(c4ccccc4)c4ccccc4)CC3)ccc2o1)c1ccc(NC2CCCCC2)c([N+](=O)[O-])c1 came out in this test?
Found: false (0)

Lookup: Hi, do you know how O=S(=O)(Nc1ccc(F)cc1F)c1ccc(-c2cnc(C3CC3)o2)cc1 came out in this test?
Found: false (0)

Lookup: Hi, do you know how COc1ccc(C(C)=O)cc1S(=O)(=O)Nc1c(N)nc(SC)[nH]c1=O came out in this test?
Found: false (0)

Lookup: Hi, do you know how COC(=O)c1c(C)nc(C)c2c1C(=O)C(Br)=C(NCc1ccccc1)C2=O came out in this test?
Found: true (1)

Lookup: Hi, do you know how CC(C)=CCC[C@](C)(O)[C@H]1CC[C@]2(C)[C@@H]1CC[C@@H]1[C@@]3(C)C/C(=C/c4ccco4)C(=O)C(C)(C)[C@@H]3CC[C@]12C came out in this test?
Found: false (0)

More entries:
Lookup: Hi, do you know how O=C(Cn1cc(CSc2nc3ccccc3o2)nn1)Nc1ccc(F)cc1F came out in this test?
Found: false (0)

Lookup: Hi, do you know how CC1CCN(S(=O)(=O)c2ccc(S(=O)(=O)N3CCCC(c4nc5c(nnn5Cc5cccc(Cl)c5)c(=O)[nH]4)C3)cc2)CC1 (configuration not stated) came out in this test?
Found: false (0)

Lookup: Hi, do you know how CCCNC(=O)Nc1ccc2cc3ccc(NC(=O)NCCC)cc3nc2c1 came out in this test?
Found: false (0)

Lookup: Hi, do you know how CCCCn1c(=O)[nH]c(N)c([C@@H]2c3c([nH]c(=O)n(CCCC)c3=O)Oc3ccc4ccccc4c32)c1=O came out in this test?
Found: true (1)

Lookup: Hi, do you know how CC(C)=CC(=O)OCC(=O)O[C@@H]1C[C@]2(C(C)C)O[C@@]1(C)[C@@H]1CC[C@@H](C)[C@H]1[C@@H]2OC(=O)/C=C/c1ccccc1 came out in this test?
Found: false (0)

Lookup: Hi, do you know how CC(C)c1ccc(-n2c(=S)[nH]c3sc4cc(O)ccc4c3c2=O)cc1 came out in this test?
Found: false (0)

Lookup: Hi, do you know how Ic1ccc(OCCCCn2ccnc2)cc1 came out in this test?
Found: false (0)

###

- System: PC-3 prostate
- assay-procedure: NCI-60 one-dose screen, 48 h
- test-context: 10 µM unless noted
The panel holds about 83,000 compounds, 20% with a hit somewhere; the sample as a whole holds those more often. Activity calls are given as the source filed them. Rule for the calls: active = growth percent below 10; inactive = the rest.
Hello, when you answer, please use one of the following outcomes: Y (active), N (inactive)

Would you please look over these solved cases?
Lookup: Hi, do you know how CCOC(=O)C1=C(c2ccccc2)N=C2SC=C(c3ccc(Cl)cc3)N2C1c1ccc(Cl)cc1 (stereo not given) came out in this test?
Found: N

Lookup: Hi, do you know how N#Cc1c(-c2ccc(Cl)cc2)nc(NN2C(=O)c3ccccc3C2=O)nc1N1CCOCC1 came out in this test?
Found: N

More entries:
Lookup: Hi, do you know how c1ccc(-c2oc(-c3ccccc3)c(CN3CCCCC3)c2CN2CCCCC2)cc1 came out in this test?
Found: N

Lookup: Hi, do you know how CC1CCN(CCOc2ccc(CNc3ccc4nc(CCC5CCCCC5)[nH]c4c3)cc2)CC1 came out in this test?
Found: N

Lookup: Hi, do you know how N#CC1=C(N)Oc2c(c(=O)[nH]c3ccc(Cl)cc23)C12C(=O)c1ccccc1C2=O came out in this test?
Found: N

Lookup: Hi, do you know how CC(=O)N1N=C(c2ccc(Nc3nc(Nc4ccccc4)nc(Nc4ccccc4)n3)cc2)CC1c1cccc([N+](=O)[O-])c1 (stereo not given) came out in this test?
Found: N

Lookup: Hi, do you know how O=C1/C(=C\c2ccc3nccnc3c2)SC(=S)N1CCc1ccc(O)cc1 came out in this test?
Found: N

Lookup: Hi, do you know how O=C(NCCNc1nccc(Nc2ccc(S(=O)(=O)Nc3ccccn3)cc2)n1)c1cccc([N+](=O)[O-])c1 came out in this test?
Found: N

Lookup: Hi, do you know how CCOc1nc(-c2ccccc2)cc2c(O)c(C(=O)N/N=C/c3ccccc3)[nH]c(=O)c12 came out in this test?
Found: N

Lookup: Hi, do you know how CCOc1ccc(NC(=O)CSc2oc(-c3ccccc3)nc2S(=O)(=O)c2ccc(C)cc2)cc1 came out in this test?
Found: N

###

- Tested on: CCRF-CEM leukemia
- assay-procedure: NCI-60 one-dose screen, 48 h (100 = growth as untreated, 0 = no growth, -100 = all killed)
- test-context: 10 µM unless noted
Compounds without any hit were thinned out: in the full panel of roughly 83,000, 20% have a hit.
quantity-measured: growth (%)
Please give a number only; it is taken to be in %.

Some compounds with recorded growth:
Lookup: Fill in: growth of NC(=O)c1cccc(-n2ccc3cc(NC(=O)c4ccc(N5CCOCC5)c(C(F)(F)F)c4)ccc32)n1 is ___
Found: 34.4

Lookup: Fill in: growth of CCO/C=N/C1=C(C#N)C(c2ccc(Cl)cc2)c2sc3c(F)cccc3c2O1 (stereo not given) is ___
Found: 38.1

Lookup: Fill in: growth of O=C(CSc1nnc(-c2cnccn2)n1-c1ccccc1)c1ccc(Cl)cc1 is ___
Found: 92.1

Lookup: Fill in: growth of O=C(O)c1cn(C2CC2)c2cc(N3CCN(Cc4ccc5ccccc5c4O)CC3)c(F)cc2c1=O is ___
Found: 68.2

Lookup: Fill in: growth of O=c1[nH]c(Cc2nc3ccccc3s2)nc2cc(Br)ccc12 is ___
Found: 56.2

Lookup: Fill in: growth of Clc1ccc2c(c1)C(c1c[nH]c3ccccc13)(c1c[nH]c3ccccc13)CCO2 is ___
Found: 45.1

Lookup: Fill in: growth of COc1cc2ncnc(Nc3ccc(S(=O)(=O)Nc4cc(C)on4)cc3)c2cc1OCCCN1CCN(c2ccc(F)cc2)CC1 is ___
Found: 103

Lookup: Fill in: growth of Fc1ccc(CNc2c3ccccc3nc3ccccc23)c(F)c1 is ___
Found: 53.9

Lookup: Fill in: growth of CNc1nnc2n(-c3ccccc3)c(=O)c3cnn(-c4ccccc4)c3n12 is ___
Found: 85.8

Moving on to the next compound.
Lookup: Fill in: growth of Cc1cc(N2CCN(CCNc3ccnc4cc(Cl)ccc34)CC2)nc(N2CCOCC2)n1 is ___
Found: 75.5
